# Tested on: HOP-62
# protocolDescription: NCI tumour cell line growth inhibition, 48 h
Active and inactive are the calls of the source. Cut-off read from the data, not from the text of the source: active = GI50 up to about 1.1 µM and inactive = higher.
Parameter call: string, one of active, inactive

Recorded test outcome, item OC1C=C2C3CN(Cc4cc5c(cc43)OCO5)[C@H]2C[C@@H]1O (stereo partly specified) inactive

Recorded test outcome, item COc1cc2c3cc1Oc1c(O)c(OC)cc4c1[C@H](Cc1ccc(cc1)Oc1cc(ccc1O)C[C@H]3N(C)CC2)N(C)CC4 inactive

Recorded test outcome, item Cc1cccc(-c2cc(O)c3ccc(C)nc3n2)c1 active

Recorded test outcome, item O=C1c2cccc(NCCNCCO)c2C(=O)c2cccc(NCCNCCO)c21 inactive

Recorded test outcome, item COc1cccc2c1Cc1cc(-c3ccccc3)[n+](C)n1-2 inactive

Recorded test outcome, item CC12CCCCC1=C(F)C(F)(F)S2 (stereo unspecified) inactive

Recorded test outcome, item CC(=O)OC1c2ccccc2CC2(OC(C)=O)c3ccccc3C12 (stereo unspecified) inactive

Recorded test outcome, item O=CNc1cccc2c3c([nH]c12)CCCCCC3 inactive

Recorded test outcome, item CCN(CC)CCNC(=O)c1ccc([N+](=O)[O-])cc1OC inactive

Recorded test outcome, item c1ccc(-c2cc(-c3ccncc3)cc(-c3ccncc3)n2)cc1 inactive

Recorded test outcome, item Cn1c(-c2ccccc2)cc(-c2cccs2)c1-c1cccs1 inactive

* * *

# Tested on: NCI-H226
# protocolDescription: NCI tumour cell line growth inhibition, 48 h
Calls of active or inactive are those of the source. Rule as the data show it: active = GI50 up to about 1.1 µM and inactive = higher.
Parameter call: string, one of t (active), f (inactive)

Recorded test outcome, item Cc1cccc(-c2cc(O)c3ccc(C)nc3n2)c1 t

Recorded test outcome, item COc1ccc(/C=C2\CCC(C)C3C2=NN(c2ccccc2)C3c2ccc(OC)c(OC)c2)cc1OC (stereo not given) f

Recorded test outcome, item C=CC(COC(=O)C(C)(C)OC(C)=O)c1ccc(OC(=O)C(C)C)c(OC)c1 (stereo not given) f

Recorded test outcome, item COC(=O)C(C(=O)C(=O)Nc1nc2ccc(OC)cc2s1)c1cnc2ccccc2n1 (stereo not given) f

Recorded test outcome, item COC(=O)c1sc2c(Cl)c(Cl)sc2c1Cl f

Recorded test outcome, item CC(=O)N(C(=O)CC(=O)NNCc1ccccc1Cl)c1ccc(Cl)cc1 f

Recorded test outcome, item FC(F)(F)c1cccc(-c2nc3ccccc3c3c2[C@@]2(N4CCCC4)CCCC[C@@H]32)c1 f

Recorded test outcome, item S=C1NC(c2ccccc2)NC(c2ccccc2)S1 (stereo not given) f

Recorded test outcome, item CCOC(=O)C1C(c2ccccc2)=C(c2ccccc2)C(c2ccccc2)=C1c1ccccc1 f

Recorded test outcome, item CN(Cc1cnc2nc(N)nc(N)c2n1)c1ccc(C(=O)NC(CCC(=O)NC(P(=O)(O)O)P(=O)(O)O)C(=O)O)cc1 (stereo not given) f

* * *

# System: NCI-H460
# protocolDescription: NCI tumour cell line growth inhibition, 48 h
Activity calls are given as the source filed them. Cut-off read from the data, not from the text of the source: active = GI50 up to about 1.1 µM and inactive = higher.
Parameter call: string, one of 1.0 = active, 0.0 = inactive

Recorded test outcome, item CCSC1SC(c2ccccc2)(c2ccccc2)c2ccccc21 (stereo unspecified) 0.0

Recorded test outcome, item O=C1C=CC(=O)c2ncccc21 0.0

Recorded test outcome, item CCOC(=O)C(C(=O)OCC)=C1NC2(c3ccccc3Nc3ccccc32)C(C#N)S1 (stereo unspecified) 0.0

Recorded test outcome, item Nc1nc(Cl)c2ncn(Cc3cccc(CCl)c3)c2n1 0.0

Recorded test outcome, item CC(O)CN1c2ccccc2Sc2ccccc21 (stereo unspecified) 0.0

Recorded test outcome, item CCCOc1ccc(-c2nc(-c3ccc(/N=C/c4ccc(N(CCOS(C)(=O)=O)CCOS(C)(=O)=O)cc4C)cc3)cs2)cc1 1.0

Recorded test outcome, item CN(CCNC(=O)c1nn(-c2ccccc2)c2c1Cc1ccccc1-2)CCNC(=O)c1nn(-c2ccccc2)c2c1Cc1ccccc1-2 0.0

Recorded test outcome, item N#Cc1c(N)oc2cc3c(C#N)c(N)oc3cc12 0.0

Recorded test outcome, item O=[N+]([O-])c1cc(Cl)ccc1OCc1ccccc1 0.0

Recorded test outcome, item COc1ccc([N+](=O)[O-])c2c(NCCCN(C)C)c3ccccc3nc12 1.0

Recorded test outcome, item Cc1ccc(NC(=S)N/N=C(/c2ccccc2)c2ccccn2)cc1 1.0

Recorded test outcome, item Cn1c(-c2ccccc2)cc(-c2cccs2)c1-c1cccs1 0.0

Recorded test outcome, item COc1ccc(-c2nc3c(C(=O)NCCN(C)C)cccc3c3ccccc23)cc1 0.0

Recorded test outcome, item COC(=O)CCCc1nc2ccccc2nc1/N=N/c1ccccc1 0.0

Recorded test outcome, item O=C(O)CS 0.0

Recorded test outcome, item N/C(=N\n1c(=S)[nH]c2ccccc2c1=O)Nn1c(=S)[nH]c2ccccc2c1=O 0.0

Recorded test outcome, item O=C(O)CCC(NC(=O)c1ccc(Nc2nc3ccc(C(F)(F)F)cc3nc2-c2ccccc2)cc1)C(=O)O (stereo unspecified) 0.0

Recorded test outcome, item CC1=C(C#N)C23C(=O)c4ccccc4C(=O)C2=C(O)C=CC3(O)N1 (stereo unspecified) 0.0

Recorded test outcome, item O=C(O)[C@H](CCC[C@H]1C(=O)O[C@H](c2ccccc2)[C@H](c2ccccc2)N1C(=O)OCc1ccccc1)N[C@@H](c1ccccc1)[C@H](O)c1ccccc1 0.0

Recorded test outcome, item O=[N+]([O-])c1cccc(C2=NN(c3ccccc3)C3c4cc(Br)ccc4OCC23)c1 (stereo unspecified) 0.0

Recorded test outcome, item COC(=O)[C@H]1[C@@H](O)[C@@]2(O)c3c(OC)cc(OC)cc3O[C@@]2(c2ccc3c(c2)OCO3)[C@@H]1c1ccccc1 1.0

Recorded test outcome, item CCOC(=O)c1cc2c([nH]1)C(=O)CC1=C2CCN1Cc1ccccc1 0.0

Recorded test outcome, item Cc1c(Cl)c(C)c(Cl)c(O)c1Cl 0.0

Recorded test outcome, item Cc1ccc(NC(=O)CC(=O)n2nc(C)c(/N=N/c3ccccc3C(=O)O)c2C)cc1 0.0

Recorded test outcome, item COC(=O)[C@@H]1C2OC(C)(C)OC2CN1C(=O)OCc1ccccc1 (stereo partly specified) 0.0

Recorded test outcome, item O=C(/C=C/c1ccc(O)c(O)c1)OCC(OC(=O)/C=C/c1ccc(O)c(O)c1)C(=O)O (stereo unspecified) 0.0

Recorded test outcome, item COc1ccc(/C=N/n2c(Cc3ccc(Cl)cc3)n[nH]c2=O)cc1 0.0

Recorded test outcome, item OCC(O)C(O)C(O)C1SC(c2ccccc2)=NN1c1ccccc1 (stereo unspecified) 0.0

Recorded test outcome, item Cc1ccc(-c2cc(-c3ccccc3)nc(N)n2)c(O)c1 0.0

Recorded test outcome, item CCCCNC(=O)C1C(=O)N(CCCC)C(=O)/C1=N\N (stereo unspecified) 0.0

Recorded test outcome, item OC1C=C2C3CN(Cc4cc5c(cc43)OCO5)[C@H]2C[C@@H]1O (stereo partly specified) 0.0

Recorded test outcome, item O=C(C[n+]1ccccc1)N/N=C(\Cc1nc2ccc([N+](=O)[O-])cc2nc1O)C(=O)Nc1cc(Cl)c(Cl)cc1Cl 0.0

Recorded test outcome, item C(=N\CC/N=C/c1cccc2ccccc12)/c1cccc2ccccc12 0.0

Recorded test outcome, item O=C(N[C@H](CO)[C@H](O)c1ccc([N+](=O)[O-])cc1)C(Cl)Cl 0.0

Recorded test outcome, item NC1=NN(c2ccccc2)C(=O)C1C(=O)C(=O)Nc1ccccc1 (stereo unspecified) 0.0

Recorded test outcome, item O=C(CC(C(=O)c1ccc(F)cc1)c1ccsc1)c1cccs1 (stereo unspecified) 0.0

Recorded test outcome, item Cc1ccc(C(=O)c2nnc(C(=O)c3ccc(C)cc3)nn2)cc1 0.0

Recorded test outcome, item [N-]=[N+]=C1CNC(=O)NC1=O 0.0

Recorded test outcome, item COc1cc(C2SCC(=O)N2c2ccc(-n3c(-c4ccccc4)nc4ccccc4c3=O)cc2)cc(OC)c1OC (stereo unspecified) 0.0

Recorded test outcome, item Cc1cccc(-c2cc(O)c3ccc(C)nc3n2)c1 1.0

Recorded test outcome, item Cc1ccc(O)cc1.Cc1cccc(O)c1.Cc1ccccc1O 0.0

* * *

# Test system: IGROV-1
# protocolDescription: NCI tumour cell line growth inhibition, 48 h
Calls of active or inactive are those of the source. Rule as the data show it: active = GI50 up to about 1.1 µM and inactive = higher.
Parameter call: string, one of active, inactive

Recorded test outcome, item Nc1nc(=O)n(C2OC(CO)C(O)C2O)cc1F (configuration not stated) inactive

Recorded test outcome, item CCOc1ccccc1NC(=O)C1=C(C)NC(C)=C(C(=O)Nc2ccccc2OCC)C1c1ccc([N+](=O)[O-])cc1 inactive

Recorded test outcome, item CN(C)c1snc2c1c(=O)n(C)c(=O)n2C inactive

Recorded test outcome, item CO/N=C(\C(=O)Nc1cncs1)c1csc(NC(c2ccccc2)(c2ccccc2)c2ccccc2)n1 inactive

Recorded test outcome, item CC1(C)CC[C@]2(C(=O)O)[C@H](O)C[C@]3(C)C(=CC[C@@H]4[C@@]5(C)CC[C@H](OC6OC(C(=O)O)C(O)C(O)C6O)C(C)(C)[C@@H]5CC[C@]43C)[C@@H]2C1 (some centres not stated) inactive

Recorded test outcome, item COc1c2c3c4c(c(OC)c(=O)c5c(O)cc(OC)c(c6c(OC)cc(O)c(c1=O)c63)c54)C(C(C)O)C2C(C)=O (configuration not stated) active

Recorded test outcome, item CCOC(=O)NC(=O)c1cn(CCN2CCN(C(=O)NCCCCCCNC(=O)N3CCN(CCn4cc(C(=O)NC(=O)OCC)c(=O)n(CCN(CC)CC)c4=O)CC3)CC2)c(=O)n(CCC(CC)CC)c1=O inactive
